# Test Details: changes in parasitized red cell lysis, either direction – P. falciparum Indochina, OD700, 3 h, PSAC antagonist project, primary screen (AID 1156)
# Measurement Parameters: P. falciparum-infected erythrocytes, osmotic lysis, higher = more signal, called active from +8 up or from −8 down
Hi there, I'd appreciate the recorded z-score for every entry that follows.
Numbers only.

Observe how each entry below is paired with its result.
molecule=O=C1O[C@@H](c2ccccc2)[C@@H](c2ccccc2)N2[C@@H](c3ccccc3OCCO)[C@]3(C(=O)Nc4ccccc43)[C@@H](C(=O)O)[C@H]12 result=-1.6
molecule=C[N+](C)(C)CCCC[C@@H]1NC(=O)[C@@H]2C[C@H](C(=O)NCCCCCCNC(=O)CS)[C@H](c3ccc(O)cc3)N2C1=O result=-3.26
molecule="CCCCN1CC=CC23O[C@@H]4/C=C\\CCCOC(=O)C4[C@H]2C(=O)N(CCCCCO)[C@@H]3C1=O (some centres undefined)" result=-0.765

Qu. Fill in: z-score of COCC(=C=CC[C@@H](O)c1ccc(OCCO)cc1)C[C@@H](O)c1ccccn1 is ___
Ans. -0.315

---

# Test Details: blockers of DNA damage checkpoint Chk1 activation – imaging, HeLa, hydroxyurea, phospho-Chk1 nuclear intensity, primary screen (AID 1187)
# Measurement Parameters: hydroxyurea-induced phospho-Chk1 immunofluorescence imaging, higher = more signal
Could you please report measured z-score for the items listed next?
Numbers only.

// worked examples, z-score included
compound=COC(=O)c1c(CC[C@@H](CO)NC(=O)N[C@@H](Cc2ccccc2)Cn2cc(-c3ccccn3)nn2)oc(C(=O)N2CCOCC2)c1C(=O)OC result=0.0064
compound="C=CC1c2cc(O)c(OC)cc2CCN1Cc1cccc(OC(F)(F)F)c1 (configuration not stated)" result=0.362
compound=C#CCN1[C@H](/C=C/C2CC2)[C@H](Cc2ccccc2)OC(=O)[C@@H]1Cc1ccccc1 result=-0.418
compound=COCCOC(=O)N1C(=O)[C@@]2(c3cc(C#CC4=CCCCC4)ccc31)[C@H](c1ccc(OCCO)cc1)N1[C@H](c3ccccc3)[C@H](c3ccccc3)OC(=O)[C@H]1[C@@H]2C(=O)N1CCc2cc(OC)c(OC)cc2C1 result=-0.0158

Report z-score for every entry below.
1. COc1cc(OC)c(C(O)C2C=CC3C(=O)NC(=O)C3N2Nc2ccccn2)cc1Br (configuration not stated)
2. COCCOC(=O)N1C(=O)[C@@]2(c3ccccc31)[C@H](C(N)=O)[C@H]1C(=O)O[C@H](c3ccccc3)[C@H](c3ccccc3)N1[C@@H]2c1ccc(O)cc1
3. O=C1OCCC/C=C\[C@H]2OC34C=CCN(c5ccc6ccccc6c5)C(=O)[C@H]3N(CCCCCO)C(=O)[C@@H]4C12 (some centres not stated)

Ans.
[-0.266, -0.194, -0.0708]

---

# Test Details: hepatitis C replication reporter changes, two-sided – Huh7 cells, luciferase reporter, HCV replication inhibitor project, primary screen (AID 1109);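 also: huh7 hepatoma cells harbouring a luciferase neomycin HCV replicon reporter; luciferase luminescence as measure of HCV replicon replication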
# Measurement Parameters: Huh7 HCV replicon luciferase reporter, 48 h; higher = more signal
// map z-score to label using bucket A: < -2; bucket B: ≥ -2 and < -0.6; bucket C: ≥ -0.6

The following molecules have reported results that may help.
molecule="CCCCCCCCCCC(O)C1C=CC2C(=O)NC(=O)C2N1Nc1ccc(Cl)cc1Cl (centres undefined)" class="bucket B"
molecule=COC(=O)[C@@]1(Cc2ccccc2)[C@H]2c3cc(C(=O)N(C)C)n(Cc4ccc(OC)c(OC)c4)c3C[C@H]2CN1C(=O)c1ccccc1 class="bucket A"
molecule=COc1ccc(-c2cc3c(c(Cc4ccccc4)n2)[Si](C(C)C)(C(C)C)OC3)cn1 class="bucket C"
molecule="CN1C(=O)C2C=CC(C(O)C=Cc3ccc([N+](=O)[O-])cc3)N(Nc3ccccc3)C2C1=O (centres undefined)" class="bucket C"

Qu. Which class is correct for the following molecule? CN(C)CCCC[C@@H]1NC(=O)[C@H]2C[C@@H](C(=O)NCCCCCN)[C@@H](c3cccc(OCCO)c3)N2C1=O
Ans. bucket C

Qu. Band assignment needed for Cc1ccc(/C=C/C=O)cc1 please.
Ans. bucket C

---

# Tested Target: Focal adhesion kinase 1 (Homo sapiens)
# Test Details: PTK2 protein binding on printed compound slides – biochemical, small-molecule microarray, 635/667 nm fluorescence, BSA, DTT, primary screen (AID 1130);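 also: composite of spot emission at 667 nm and signal to noise over triplicate slides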
# Measurement Parameters: 635 nm fluorescence, higher = more signal
Assay Readout: composite z-score
One number for each entry.

compound="O=C1NC(=O)C2C1C=CC(C(O)C=Cc1ccc([N+](=O)[O-])cc1)N2Nc1ccc(Cl)cc1Cl (configuration not stated)" result=0.0716

Hello, I would appreciate it if you could give composite z-score for each entry below.
1. CCCC[C@@H]1C[C@H]1[C@@H](NC(=O)c1cccnc1)c1ccc(Cl)cc1
2. C=CCN(Cc1ccccc1)C(=O)C(c1cccs1)N(C(=O)/C=C\C(=O)O)c1ccc(CCOCCO)cc1 (configuration not stated)
3. COc1cc2c(cc1O)C=[N+](Cc1cc3c(cc1Br)OCO3)CC2
4. COCCCNC(=O)[C@@]1(Sc2ccc(C)cc2)CC(=O)N(Cc2ccccc2Cl)[C@@H]1c1ccc(CO)cc1
5. CN(C)CCCCNC(=O)[C@@H]1C[C@@H]2C(=O)N[C@@H](CCCCN)C(=O)N2[C@@H]1c1ccc(O)cc1
6. CN1C(=O)C2C=CC(C(O)c3ccccc3)N(N3CCCCC3)C2C1=O (configuration not stated)

Ans.
[-0.518, -0.618, -0.626, 0.215, -0.0748, 0.352]

---

# System: XIP peptide (Xip251-270) binding
# Test Details: XIP fragment 251-270 binding compounds – biochemical, small-molecule microarray, fluorescence 635/667 nm, 0.1 µg/mL protein, primary screen (AID 1182)
# Measurement Parameters: fluorescent protein binding, 635 nm, higher = more signal, called active from +8 up or from −8 down
Group membership follows composite z-score per the scheme I (below -0.2), II (-0.2 to below 0.5), III (0.5 or more)

Recorded results for 5 molecules are shown here.
molecule="O=C1NC(=O)C2C1C=CC(C(O)C1CC=CCC1)N2Nc1ccccn1 (stereo unspecified)" class=II
molecule=COc1ccc([C@H]2C[C@H]3C(I)=C[C@@H]2C(=O)[C@]32CO2)cc1 class=I
molecule=COc1ccc(-c2cc3c(c(Cc4ccccc4)n2)[Si](C(C)C)(C(C)C)OC3)cn1 class=III
molecule="CC(C)CCC[C@@H](C)[C@H]1CC[C@@]2(C)C3=C(CC[C@]12C)[C@@]1(C)CC[C@H](OC(=O)c2ccc(C(F)(F)F)nc2)C(C)(C)C1CC3 (stereo partly specified)" class=II
molecule=C=C(CCCC)/C(=C/C[C@@H](OC(C)=O)c1cccc(OCCO)c1)c1cnc2ccccc2c1 class=I

Qu. // return the class label for C=C(CCCC)/C(=C/C[C@H](OC(=O)c1ccncc1)c1ccc(OCCO)cc1)c1cc(C(=O)OC)ccc1OC
Ans. I

Qu. Could you tell me which band COCCOC(=O)N1C(=O)[C@@]2(c3cc(C#CC4(O)CCCCCC4)ccc31)[C@H](c1ccccc1OCCO)N1[C@H](c3ccccc3)[C@H](c3ccccc3)OC(=O)[C@H]1[C@@H]2C(=O)N1CCc2cc(OC)c(OC)cc2C1 belongs to?
Ans. II

Qu. Band for the recorded composite z-score of CC(C)NC(=O)[C@@H]1c2ccccc2C(=O)N(C(C)C)[C@H]1c1ccc(CO)cc1 ?
Ans. III

Qu. Record Cc1ccc([C@H]2C(C(=O)O)=CCN2S(=O)(=O)c2ccc(C)cc2)cc1 — which class?
Ans. I

Qu. # bin label for CC(C)[Si](C#CCCCC#N)(O[C@H](c1ccccc1)c1cn(Cc2cccc(Cl)c2)nn1)C(C)C
Ans. II

Qu. Categorize the following entry: COCCOC(=O)N1C(=O)[C@@]2(c3cc(C#CC4(O)CCCCCC4)ccc31)[C@H](C(=O)Nc1nc3ccccc3s1)[C@H]1C(=O)O[C@H](c3ccccc3)[C@H](c3ccccc3)N1[C@@H]2c1ccccc1OCCO
Ans. III

---

# Test Details: S6 kinase pathway phospho-S6 level changes – cell-based, A549, cytoblot, luminescence, serum-stimulated, primary screen (AID 1158);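 also: serum-stimulated A549 lung adenocarcinoma cells; signal is phosphorylated S6 detected by cytoblot immunostaining with HRP secondary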
# Measurement Parameters: 5 h, higher = more signal
Mark no for z-score values under -0.5, and yes for everything at or above.

smiles_structure=O=C(NCc1ccccc1)[C@@H]1c2ccccc2C(=O)N(C2Cc3ccccc3C2)[C@H]1c1ccc(CO)cc1 class=no

Qu. Check if z-score >= -0.5 (inclusive). Item: C=CC[C@]12N=C(c3ccc(OCCCO)cc3)O[C@H]1c1ccccc1N(CCS(=O)(=O)c1ccccc1)C2=O
Ans. yes

Qu. Check if z-score >= -0.5 (inclusive). Item: COC(=O)[C@@]1(Cc2ccccc2)[C@H]2c3cc(C(=O)N(C)C)n(CCc4c[nH]c5ccc(O)cc45)c3C[C@H]2CN1C(=O)c1ccccc1
Ans. yes

Qu. State whether the measured z-score reaches -0.5, counting equality as reaching it, for [N-]=[N+]=Nc1ccccc1C[C@@]1(C(=O)N2CCCCC2)N=C(c2ccc(OCCCO)cc2)O[C@@H]1c1ccccc1
Ans. yes
